Value source: patent EP1388586A2

Biological target: DRB1*0701 (DR7) (Homo sapiens, UniProt P01903+P01911, A100R/A102G/A103Q/D57E/D86V/E43K/F76Y/K127E/L162R/M171V/P40G/Q125H/Q99D/R33Q/R42Y/R54Q/S133A/S66F/T210M/V115G/Y107V/Y59L/Y89S)
Assay: Class II peptide-binding assay, DR7;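 also: unlabeled peptides compete with an iodinated probe peptide for binding to affinity-purified HLA-DR at neutral pH, DR amount titered to bind a small tracer fraction, IC50 approximating Kd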
Settings: read-out: In IC50 Format DR7 nM; Table VIII; values in parentheses read as lower bounds
pIC50: −log10 of the molar value. Ends that are not written are not given here.
PARAMETER: pIC50

- SEQ: "ARLLDIDETEYHADG [Peptide 39.0366]"
  ASSAY_RESULT: "< 4.83"
